// provenance: patent US8415486B2

- TARGET_OR_SYSTEM: cIAP-1 BIR-3 (Homo sapiens, UniProt Q13490)
- Construct: 40 nM of the respective IAP BIR3
- Sequence (Q13490 253-363 limits assumed): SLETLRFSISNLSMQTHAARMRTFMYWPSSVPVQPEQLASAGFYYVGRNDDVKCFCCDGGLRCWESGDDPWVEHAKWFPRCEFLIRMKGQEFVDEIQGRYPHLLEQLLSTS
- METHOD: Fluorescence polarization binding to cIAP-1 BIR-3 with labeled peptide AbuRPF-K(5-Fam)-NH2
- CONDITION_PARAMETERS: 40 nM BIR3, 5 nM labeled peptide, reported as ranges, read-out: KD (c-IAP-1 BIR3)
- Procedure: The binding affinities of the compounds are reported as a KD value (μM). […] Following incubation, the polarization values (mP) were measured on a Victor2V (available from PerkinElmer Life Sciences) using a 485 nm excitation filter and a 520 nm emission filter. […]
QUANTITY: Kd

Worked examples follow.
| COMPOUND | QUANTITY | TEST_VALUE |
| --- | --- | --- |
| CN[C@@H](C)C(=O)N[C@H](C(=O)N1CC[C@@H]2[C@H]1[C@@H](Oc1ccc(F)c(F)c1)CN2C(C)=O)C(C)(C)C | Kd | < 0.1 µM |
| CNC(C)C(=O)NC(C(=O)N1CCC2C1C(OC(=O)NCc1ccccc1)CN2C(=O)NC(C)C)C(C)(C)C (stereo not drawn) | Kd | < 0.1 µM |
| CN[C@@H](C)C(=O)N[C@H](C(=O)N1CC[C@@H]2[C@H]1[C@@H](OCc1ccc(F)cc1)CN2C(=O)NC(C)C)C(C)(C)C | Kd | < 0.1 µM |
| CNC(=O)N1C[C@H](OCc2ccc(F)cc2)[C@@H]2[C@H]1CCN2C(=O)[C@@H](NC(=O)[C@H](C)NC)C(C)(C)C | Kd | < 0.1 µM |
| CN[C@@H](C)C(=O)N[C@H](C(=O)N1CC[C@@H]2[C@H]1[C@@H](OCc1ccc(F)cc1)CN2C1CCCC1)C(C)(C)C | Kd | < 0.1 µM |

Give its Kd value. Item: CN[C@@H](C)C(=O)N[C@H](C(=O)N1CC[C@@H]2[C@H]1[C@@H](OC(=O)NC(C)C)CN2C(=O)NC(C)C)C(C)(C)C
< 0.1 µM

Item under review: CN[C@@H](C)C(=O)N[C@H](C(=O)N1CC[C@@H]2[C@H]1[C@@H](COc1ccc(F)c(F)c1)CN2C(C)=O)C(C)(C)C . Reported Kd?
< 0.1 µM

For CN[C@@H](C)C(=O)N[C@H](C(=O)N1CC[C@@H]2[C@H]1[C@@H](OC(=O)N(c1ccccc1)c1ccccc1)CN2C(=O)NC(C)C)C(C)(C)C , what is its reported Kd?
< 0.1 µM

Report Kd for CNC(=O)N1C[C@H](Oc2ccc(F)cc2)[C@@H]2[C@H]1CCN2C(=O)[C@@H](NC(=O)[C@H](C)NC)C(C)(C)C please.
< 0.1 µM

Any idea what its Kd is? The compound is CN[C@@H](C)C(=O)N[C@H](C(=O)N1CC[C@@H]2[C@H]1[C@@H](COc1ccc(F)c(F)c1)CN2C(=O)N(C)C)C(C)(C)C
< 0.1 µM

What does the record list as Kd for CCN1C[C@H](Oc2ccc(F)c(F)c2)[C@@H]2[C@H]1CCN2C(=O)[C@@H](NC(=O)[C@H](C)NC)C(C)(C)C ?
< 0.1 µM

Please report the recorded Kd for CN[C@@H](C)C(=O)N[C@H](C(=O)N1CC[C@@H]2[C@H]1[C@@H](Oc1ccc(F)cc1)CN2S(C)(=O)=O)C1CCCCC1 .
< 0.1 µM
